Reference source: paper PMC6270201

Tested on: T24 (bladder) human-derived tumor cell line
Assay: MTT reduction antiproliferative assay, T24 bladder cells
Assay type: cell-based
Details: 48 h incubation, mean of at least three experiments, read-out: EC50 ± SEM T24
PROPERTY_MEASURED: pEC50
// returns pEC50 (minus log10 of molar concentration), number only

For record COc1cccc2c1C(=O)c1c(O)c3c(c(O)c1C2=O)C[C@@](O)(C(=O)CO)C[C@@H]3O[C@H]1C[C@H](N)[C@H](O)[C@H](C)O1 [DOX, doxorubicin, reference compound] the listed pEC50 is 6.19

For record COc1cc(C(=O)c2cc(O)ccc2O)ccc1O [compound 11] the listed pEC50 is 3.81

For record COc1cc(C(=O)c2cc(O)c3ccccc3c2O)cc(OC)c1O [compound 23] the listed pEC50 is 3.95

***
For record COc1ccc(C(=O)c2cc(O)c3ccccc3c2O)cc1OC [compound 20] the listed pEC50 is 4.33
